Measured IC50 at 3 days by item
test: Cytotoxicity in Vero cells; assay type: cell-based, African green monkey; conditions: African green monkey, Vero (kidney) cells

SMILES REPR	IC50 at 3 days
Nc1ncnc2c1ncn2[C@@H]1O[C@H](CO)[C@@H](O)[C@@H]1O	> 100 µM
NC(=O)c1ncn([C@@H]2O[C@H](CO)[C@@H](O)[C@H]2O)n1	> 100 µM

----------
assay: Cytotoxicity in uninfected PHA-stimulated PBM cells; assay type: cell-based, human; conditions: human, uninfected PHA-stimulated PBM cells
OUTCOME MEASURE: IC50 at 6 days

SMILES REPR	REPORTED
Cc1cn([C@H]2C[C@H](N=[N+]=[N-])[C@@H](CO)O2)c(=O)[nH]c1=O	> 100 µM
Nc1ncnc2c1ncn2[C@@H]1O[C@H](CO)[C@@H](O)[C@@H]1O	26 µM
NC(=O)c1ncn([C@@H]2O[C@H](CO)[C@@H](O)[C@H]2O)n1	> 100 µM
Nc1ccn([C@@H]2O[C@H](CO)[C@@H](O)[C@@H]2O)c(=O)n1	57 µM
